# measured_on: T1, RHEB1, mGppNHp-bound (human, UniProt Q15382 1-184)
# T1 construct: human RHEB1; Loaded with mGppNHp; the discussion speaks of the RHEB G domain
# assay: fluorescence polarisation; increasing concentrations of the RA/RB domain as MBP fusion protein (0.002-300 µM; or MBP alone) titrated to mGppNHp-bound RAS protein (1 µM); 30 mM Tris-HCl pH 7.4, 100 mM NaCl, 5 mM MgCl2, 3 mM DTT; Kd from a quadratic ligand-binding equation
# particulars: both partners purified
readout_label: pKd
Note on units: pKd is unitless, being -log10 of a concentration expressed in mol/L.

Some binders with known pKd results, for comparison:
INSERT INTO assay_data (binder, readout_number) VALUES
  ('RASSF4 RA domain, MBP fusion protein (domain or fragment, human, UniProt Q9H2L5 174-262, looked up, RASSF4 RA domain, aa 174-262 of Q9H2L5) YNHKTSVFTPAYGSVTNVRVNSTMTTLQVLTLLLNKFRVEDGPSEFALYIVHESGERTKLKDCEYPLISRILHGPCEKIARIFLMEADL', 4.33),
  ('RASSF3 RA domain, MBP fusion protein (domain or fragment, human, UniProt Q86WH2 79-187, looked up, RASSF3 RA domain, aa 79-187 of Q86WH2) YTGFIKVQMELCKPPQTSPNSGKLSPSSNGCMNTLHISSTNTVGEVIEALLKKFLVTESPAKFALYKRCHREDQVYACKLSDREHPLYLRLVAGPRTDTLSFVLREHEI', 4.19),
  ('RASSF8 RA domain, MBP fusion protein (domain or fragment, human, UniProt Q8NHQ8 1-82, looked up, RASSF8 RA domain, aa 1-82 of Q8NHQ8) MELKVWVDGVQRIVCGVTEVTTCQEVVIALAQAIGRTGRYTLIEKWRDTERHLAPHENPIISLNKWGQYASDVQLILRRTGP', 3.99);

Please look at the following binder next.
Inquiry: What does the record list as pKd for RASSF2 RA domain, MBP fusion protein (domain or fragment, human, UniProt P50749 176-264, looked up, RASSF2 RA domain, aa 176-264 of P50749) YNHKTSVFTPAYGSVTNVRINSTMTTPQVLKLLLNKFKIENSAEEFALYVVHTSGEKQKLKATDYPLIARILQGPCEQISKVFLMEKDQ ?
Reply text: 4.36
